test system: U2OS; experiment: Incucyte cell viability with U2OS; type: toxicity, cell-based; conditions: human, 0 h, 10 µM, compound concentration 10 uM, replicate number 1, timepoint 0 hours; further: filed as whole numbers so only -1 and 0 and 1 occur
property: Growth Rate
Reply with the value as a number alone.

These solved cases illustrate the format of a correct answer.
Cc1ccc2nc(CNCCCOc3ccccc3)cc(O)c2c1    0
CC1(C)C(=O)C(C)(C)c2cc(C(=O)Nc3ccc(C(=O)O)cc3)ccc21    0
CO[C@@H](C)c1c(Nc2ccc([C@@H](N(C)C(=O)C3CCS(=O)(=O)CC3)C(F)(F)F)cc2)cnc2cc(Cl)nn12    0
Cn1cc(CCn2cnc(-c3cnn(C)c3)c2-c2ccc(C#N)cc2)cn1    1
Cc1ccc2nc(NCCN)c3ncc(C)n3c2c1.O=C(O)C(F)(F)F.O=C(O)C(F)(F)F    0

# input # query: Growth Rate of entry `CCCCN(CCCC)C(=O)CN1C[C@H](c2cc(OC)c3c(c2)OCO3)[C@@H](C(=O)O)[C@@H]1CC(C)(C)CCC.Cc1ccc(S(=O)(=O)O)cc1`
# output 0

# input Param item = `O=C(NS(=O)(=O)c1ccc(NCC2CCOCC2)c([N+](=O)[O-])c1)c1ccc(N2CCN(Cc3ccc(C(F)(F)F)cc3-c3ccc(Cl)cc3)CC2)cc1Oc1cnc2[nH]ccc2c1` ; retrieve measured Growth Rate.
# output 0

# input Entry under review: `CS(=O)(=O)NCC[C@H](NC(=O)c1cncc2c1cnn2-c1ccc(F)cc1)c1ccnc(S(C)(=O)=O)c1` . Reported Growth Rate?
# output 0

----------
system: Fibroblast; experiment: Multiplex assay against human fibroblast; type: toxicity, cell-based; settings: 24 h, 1 µM, compound concentration 1 uM, replicate 1
Measured Population Normal (%) of individual entries

The following molecules have reported results that may help.
CCOc1cc2ncc(C#N)c(Nc3ccc(OCc4ccccn4)c(Cl)c3)c2cc1NC(=O)/C=C/CN(C)C    81%
C=C1/C(=C\C=C2/CCC[C@]3(C)[C@@H]([C@H](C)/C=C/[C@H](C)C(C)C)CC[C@@H]23)C[C@@H](O)C[C@@H]1O    89%
Cc1cc(C)c(S(=O)(=O)N(Cc2ccc(-c3cccc(S(C)(=O)=O)c3)cc2)Cc2ccc(C(F)(F)F)o2)c(C)c1    90%

Then this molecule:
# input Requested field: Population Normal (%). Item: `CCN1CCN(Cc2ccc(Nc3ncc(F)c(-c4cc(F)c5nc(C)n(C(C)C)c5c4)n3)nc2)CC1.CS(=O)(=O)O`
# output 78%

----------
system: HEK-293T; assay: Multiplex assay against HEK293T; type: toxicity, cell-based; conditions: human, 48 h, 1 µM, compound concentration 1 uM, replicate 2
Criterion: Population Mitochondria Different-Phenotype (%) strictly less than 20%. Met: 1.0. Not met: 0.0.

Some solved cases for reference:
CCOC(=O)c1c(C)[nH]c2ccc3c(c12)CN1CCc2cc(OC)ccc2C1O3 (stereo not given)    0.0
O=C(Nc1ccc(-c2ccnc(Nc3ccc(N4CCOCC4)cc3)n2)cc1)[C@@H]1CCCN1    1.0
Cc1cc(C)c(S(=O)(=O)N(Cc2ccc(-c3cccc(S(C)(=O)=O)c3)cc2)Cc2ccc(C(F)(F)F)o2)c(C)c1    1.0
Cc1ccc(C(=O)Nc2cccc(C(F)(F)F)c2)cc1Nc1nc(-c2cccnc2)nc2c1cnn2C    0.0
O=C(Nc1ccc(Cl)cc1)Nc1cccc(-c2cccc(N3CCCC3)n2)c1    1.0
O=C(Cc1ccc(-c2ccc(OCCN3CCOCC3)cc2)cn1)NCc1ccccc1 [TIRBANIBULIN]    0.0
COc1cc(N2CCN(C)CC2)ccc1Nc1ncc2c(n1)N(C)c1ccccc1C(=O)N2C    1.0
CCCS(=O)(=O)c1nc(NC2CC2)cc(-c2ccc3c(ccn3C3CC(C)(C)NC(C)(C)C3)c2)n1    0.0
CN(C)C(=O)C(CCN1CCC(O)(c2ccc(Cl)cc2)CC1)(c1ccccc1)c1ccccc1.Cl [LOPERAMIDE HYDROCHLORIDE]    0.0

Read the next record carefully.
# input Is Population Mitochondria Different-Phenotype (%) strictly under 20% for the entry CN1CCC(=C2c3ccccc3CC(=O)c3sccc32)CC1.O=C(O)/C=C/C(=O)O [KETOTIFEN FUMARATE] ?
# output 1.0

----------
system: U2OS; test: Multiplex assay against U2OS; format: toxicity, cell-based; details: human, 24 h, 10 µM, compound concentration 10 uM, replicate 1
property: Total Cell Count
Simply state the number, no unit and no words.

Examples from the recorded data:
Cl.O=c1c2cccn2c2ccccc2n1CCCN1CCC(c2ccc(Cl)cc2)CC1    229
CN1CCN(C(=O)C(C)(C)c2ccc(C(=O)Nc3cn4cc(-c5cc(C(C)(C)C)cc(C(C)(C)C)c5)ccc4n3)cc2)CC1 [T3-CLK-N]    230
COc1ccc(-c2ccc3c(N4CCOCC4)nc(N4C[C@@H](C)O[C@@H](C)C4)nc3n2)cc1CO [Ku-0063794]    298

# input Fill in: Total Cell Count of COCC(=O)NC/C=C/c1ccc2ncnc(Nc3ccc(Oc4ccc(C)nc4)c(C)c3)c2c1 [CP-724714] is ___
# output 156

----------
system: U2OS; assay: Multiplex assay against U2OS; assay type: toxicity, cell-based; details: human, 24 h, 10 µM, compound concentration 10 uM, replicate 2
hey, just use true if measured Population Tubulin-Different-Phenotype (%) is less than 60%, otherwise false

# input Dear colleague, could you confirm whether Population Tubulin-Different-Phenotype (%) of `CCn1cc(-c2ccnc3[nH]c(-c4cccc(CN(C)C)c4)cc23)c(-c2ccc(NC(=O)N(C)C)cc2)n1` falls below 60%? Thanks.
# output false

# input Dear reviewer, please state whether `COc1cc(N2CCN(C)CC2)ccc1Nc1ncc2c(n1)N(C)c1ccccc1C(=O)N2C` has Population Tubulin-Different-Phenotype (%) strictly beneath 60%.
# output false

# input For `O=C1N/C(=N/c2ccccc2F)S/C1=C\c1ccc(C(=O)O)cc1` , is the recorded Population Tubulin-Different-Phenotype (%) below the cut-off of 60%?
# output true

# input Here's an entry: `CNC(=O)c1ccc(Nc2nc(OC3CCCC3)c3c(-c4ccc5nc(C)oc5c4)c[nH]c3n2)c(OC)c1` . Is its Population Tubulin-Different-Phenotype (%) below 60%?
# output true

# input Threshold test, Population Tubulin-Different-Phenotype (%) < 60%: CN1C2CCC1CC(OC(c1ccc(F)cc1)c1ccc(F)cc1)C2.Cl (stereo not given)
# output true

----------
system: Fibroblast; experiment: Multiplex assay against human fibroblast; format: toxicity, cell-based; conditions: 24 h, 10 µM, compound concentration 10 uM, replicate 1
Is Population Fragmented Nuclei (%) at least 30%? Then Condition met. If not, Condition not met.

COc1cc2ncnc(Nc3ccc(F)c(Cl)c3)c2cc1NC(=O)/C=C/CN1CCCCC1 [DACOMITINIB ANHYDROUS]    Condition met

# input In plain terms: is recorded Population Fragmented Nuclei (%) at least 30% for CCCn1c(=O)c2[nH]c(-c3cnn(Cc4cccc(C(F)(F)F)c4)c3)nc2n(CC)c1=O [GS 6201] ?
# output Condition met

# input Please tell me: is the compound O=C1NC(=O)C(c2cnc3ccccn23)=C1c1cn2c3c(cc(F)cc13)CN(C(=O)N1CCCCC1)CC2 [LY-2090314] at or over 30% in terms of Population Fragmented Nuclei (%)?
# output Condition not met

# input Tell me whether Population Fragmented Nuclei (%) is at least 30% here: `Cl.O=c1c2cccn2c2ccccc2n1CCCN1CCC(c2ccc(Cl)cc2)CC1`
# output Condition not met

# input Evaluate O=C(Nc1ccc(-n2nc(-c3cccnc3)cc2C(F)(F)F)cn1)c1ccc(-c2ccccc2)c(F)c1 [BI 2049] : Population Fragmented Nuclei (%) at minimum 30%?
# output Condition not met

# input Entry `O=C1N/C(=N/c2ccccc2F)S/C1=C\c1ccc(C(=O)O)cc1` : is its Population Fragmented Nuclei (%) no less than 30%?
# output Condition not met

----------
tested on: HEK-293T; assay: Multiplex assay against HEK293T; type: toxicity, cell-based; conditions: human, 12 h, 1 µM, compound concentration 1 uM, replicate 1
Each entry below carries its recorded Population Pyknosed Nuclei (%).
Give a bare numeral; the unit % is implied.

CN1C2CCC1CC(OC(c1ccc(F)cc1)c1ccc(F)cc1)C2.Cl (stereo not drawn)    60
COc1ccc(S(=O)(=O)N(CCO)c2ccccc2CN(C)C/C=C/c2ccc(Cl)cc2)cc1.O=P(O)(O)O    59

# input # query: Population Pyknosed Nuclei (%) of entry `Cl.Oc1ccc2c3c1O[C@H]1c4[nH]c5c(c4C[C@@]4(O)[C@@H](C2)N(CC2CC2)CC[C@]314)C[C@@]1(O)[C@H]2Cc3ccc(O)c4c3[C@@]1(CCN2CC1CC1)[C@H]5O4`
# output 45

# input Record request: Population Pyknosed Nuclei (%) value, item `COC(=N)c1nc2ccc3ncnc(Nc4ccc(OC)cc4F)c3c2s1`
# output 29

# input Given the entry `O=C(Nc1cccnn1)N1CCC(=Cc2cccc(Oc3ccc(C(F)(F)F)cn3)c2)CC1` , report its measured Population Pyknosed Nuclei (%).
# output 33

# input Look at this compound and give its reported Population Pyknosed Nuclei (%). `CCc1cccc(CC)c1NC(=O)c1nn(C)c2c1CCc1cnc(Nc3ccc(N4CCN(C)CC4)cc3OC)nc1-2`
# output 67

# input Give its Population Pyknosed Nuclei (%) value. Item: `CCNc1cc(N[C@H]2CC[C@H](O)CC2)nc(Nc2ccc3c(ccn3Cc3ccccc3)c2)n1`
# output 32

# input Query (compound): `CCn1cc(-c2ccnc3[nH]c(-c4cccc(CN(C)C)c4)cc23)c(-c2ccc(NC(=O)N(C)C)cc2)n1` ; field requested: Population Pyknosed Nuclei (%)
# output 18
